biological target: Prostaglandin E2 receptor EP2 subtype (Homo sapiens) (UniProt P43116); test: EP2 receptor modulators, dose response, cell-based, human EP2, PGE2 EC50 shift (AID 1421); conditions: EP2-expressing cells, PGE2 EC50 shift by compound; measured here: PGE2 EC50 at 6.7 uM compound
Sequence (P43116 whole entry, looked up): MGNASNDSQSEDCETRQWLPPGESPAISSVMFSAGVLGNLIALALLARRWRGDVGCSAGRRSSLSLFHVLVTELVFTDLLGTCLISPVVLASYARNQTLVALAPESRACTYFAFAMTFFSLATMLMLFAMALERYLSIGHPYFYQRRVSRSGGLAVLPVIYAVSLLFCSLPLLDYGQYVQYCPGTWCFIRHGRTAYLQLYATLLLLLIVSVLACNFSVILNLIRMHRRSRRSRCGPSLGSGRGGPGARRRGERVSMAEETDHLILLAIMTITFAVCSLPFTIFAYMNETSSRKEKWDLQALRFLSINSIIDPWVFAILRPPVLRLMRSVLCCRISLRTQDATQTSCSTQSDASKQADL
Respond with label 1 for PGE2 EC50 with compound values of 2 nM and above, label 0 for values below.

                         structure_notation                        measurement_target  category
0           CCN1C(=O)/C(=C2/C=CC=CN2C)SC1=S  Prostaglandin E2 receptor EP2 subtype (Homo sapiens) (UniProt P43116)   label 0
1  CCN1CCN(c2c(Cl)cccc2NC(=O)c2ccc(Br)o2)CC1  Prostaglandin E2 receptor EP2 subtype (Homo sapiens) (UniProt P43116)   label 1
2  CCC(C)(C)c1ccc(OCC(=O)N(C)C)c(C(C)(C)CC)c1  Prostaglandin E2 receptor EP2 subtype (Homo sapiens) (UniProt P43116)   label 1

-- ask Does the reported PGE2 EC50 with compound for COc1ccc(-n2c(COc3ccc(Cl)cc3)nnc2SCc2ccc(C#N)cc2)cc1 fall at or above the 2 nM mark?
-- reply label 0

-- ask Now try Cc1ccn2c(Nc3ccccc3C)c(-c3ccccn3)nc2c1 .
-- reply label 0

====

biological target: Prostaglandin E2 receptor EP2 subtype (Homo sapiens) (UniProt P43116); test: EP2 receptor modulators, dose response, cell-based, human EP2, PGE2 EC50 shift (AID 1421); details: EP2-expressing cells, PGE2 EC50 shift by compound; measured here: PGE2 EC50 at 6.7 uM compound
Readout name: PGE2 EC50 with compound (pM)
Answers are plain numbers, in pM.

Study these solved cases before continuing.
>>> print(df.to_string())
                                   compound  endpoint_value
0  Cc1nnc(SCC(=O)N2c3ccccc3C(C)(c3ccccc3)CC2(C)C)s1 (stereo not drawn)             850
1  Cn1c(=O)c2c(nc(CN3CCN(c4ccccc4)CC3)n2Cc2ccccc2Cl)n(C)c1=O            2590

-- ask PGE2 EC50 with compound lookup needed for c1ccc(C2Nc3ccccc3Oc3ccccc32)cc1 (stereo not drawn) , thanks.
-- reply 850

====

target: Prostaglandin E2 receptor EP2 subtype (Homo sapiens) (UniProt P43116); experiment: EP2 receptor modulators, dose response, cell-based, human EP2, PGE2 EC50 shift (AID 1421); conditions: EP2-expressing cells, PGE2 EC50 shift by compound; measured here: PGE2 EC50 at 6.7 uM compound
Exercise: state measured PGE2 EC50 with compound for each of the molecules provided.
Numbers only, in nM.

>>> df
                          molecule  endpoint_value
0  COC(=O)c1cc2occc2n1Cc1cccc(C)c1            0.79

Give me PGE2 EC50 with compound for each of these molecules, listed below.
1. COc1ccc(C2=Nn3c(nnc3-c3ccccc3OC)SC2)cc1OC
2. CCCC(=O)Nc1ccccc1Sc1ncnc2scc(-c3ccccc3)c12
3. COCCNC(=O)C(c1ccc(F)cc1)N(CC1CCCO1)C(=O)CCC(=O)Nc1ccccn1 (stereo not given)

-- reply
1. 0.93
2. 1.07
3. 2.09

====

molecular target: Prostaglandin E2 receptor EP2 subtype (Homo sapiens); assay: EP2 receptor modulators, dose response, cell-based, human EP2, PGE2 EC50 shift (AID 1421); conditions: EP2-expressing cells, PGE2 EC50 shift by compound; measured here: PGE2 EC50 at 6.7 uM compound
Readout name: PGE2 EC50 with compound (nM)
Give bare numbers, in nM.

Give me PGE2 EC50 with compound for each of these molecules, listed below.
1. CNc1oc(-c2ccc(Cl)cc2)nc1P(=O)(c1ccccc1)c1ccccc1
2. CC(Sc1nnc(-c2cccs2)n1Cc1ccccc1)C(=O)NCc1ccc2c(c1)OCO2 (configuration not stated)
3. Cc1cc(C)c2nc(N3CCCN(C(=O)c4ccco4)CC3)c(C#N)cc2c1

-- reply
1. 0.76
2. 0.62
3. 0.64

Give me PGE2 EC50 with compound for each of these molecules, listed below.
1. CCN=C1S/C(=C\c2ccc(O)c(OCC)c2)C(=O)N1CC
2. CCCCCc1ccc(-c2ccc(=O)[nH]n2)cc1
3. O=C(Nc1ccccc1Cl)N1CCSc2ccccc21
4. CCCCOc1cc(C)nc(NCc2ccccc2)n1
5. COc1ccc(CCN(Cc2nc(-c3ccccc3)no2)Cc2nc(-c3ccccc3)no2)cc1OC
6. Cc1ccc(CSc2ncnc3c2cnn3Cc2ccccc2)cc1C
7. COC(=O)C1C(c2ccccc2)C(C(=O)OCc2ccco2)C1c1ccccc1 (configuration not stated)

-- reply
1: 0.81; 2: 1.44; 3: 1.55; 4: 1.47; 5: 1.2; 6: 1.08; 7: 2.61

Give me PGE2 EC50 with compound for each of these molecules, listed below.
1. Cc1cccnc1N(C(=O)Nc1cccc(Cl)c1)C1=NCC(C)(C)S1
2. NC(=O)CSc1nc(-c2ccccc2)c(-c2ccccc2)o1

-- reply
[1.22, 0.94]
